pIC50: −log10 of the molar value.
Form: system (Angiopoietin-1 receptor (Homo sapiens)), quantity (pIC50), values below.
parameter_measured: pIC50

[[record]]
smiles_text = "CC(C)Cn1c2ccc(NC(=O)c3cccs3)cc2c2c3c(c4c(c21)CCc1nn(C)cc1-4)C(=O)NC3"
obs_value = 8.00

[[record]]
smiles_text = "CCCn1c2ccc(NC(=O)Nc3ccc(N(C)C)cc3)cc2c2c3c(c4c(c21)CCc1nn(C)cc1-4)C(=O)NC3"
obs_value = 8.22

[[record]]
smiles_text = "CCCn1c2ccc(NC(=O)c3cccs3)cc2c2c3c(c4c(c21)CCc1nn(C)cc1-4)C(=O)NC3"
obs_value = 7.92

[[record]]
smiles_text = "COc1ccccc1NC(=O)Nc1ccc2c(c1)c1c3c(c4c(c1n2CC(C)C)CCc1nn(C)cc1-4)C(=O)NC3"
obs_value = 8.10

